TEST DESCRIPTION: NCI Yeast Anticancer Drug Screen. Data for the bub3 strain (AID 167)
EXPERIMENTAL CONDITIONS: S. cerevisiae bub3 mutant strain, at 50.0 µM, stronger effect = higher value
The panel holds about 79,000 compounds, 15% with a hit somewhere; the sample as a whole holds those more often.
QUANTITY MEASURED: growth inhibition (%)
Quick note: give the figure in %, leave out the unit.

Clc1cccc(C=NC23CC4CC(CC(C4)C2)C3)c1Cl	-22.6
COC(=O)c1ccccc1N=NNc1ccc(C)c(Cl)c1	5.7

Here is the next item to consider.
For the compound Cc1ccc2c(c1)C(C)(C)C(C)C2(C)C (stereo not drawn) , give its measured growth inhibition value. 9.25

====

TEST DESCRIPTION: NCI Yeast Anticancer Drug Screen. Data for the bub3 strain (AID 167)
EXPERIMENTAL CONDITIONS: S. cerevisiae bub3 mutant strain, at 50.0 µM, stronger effect = higher value
Compounds without any hit were thinned out: in the full panel of roughly 79,000, 15% have a hit.
QUANTITY MEASURED: growth inhibition (%)
Quick note: give the figure in %, leave out the unit.

Field: example entries. Status: answers known.
COC(=O)C1CCc2c(OC)ccc(OC)c2C1=O (configuration not stated)	-2.45
N#Cc1cccc(NC(=O)c2ccc(C(=O)O)c(C(=O)c3ccc(C(=O)O)c(C(=O)Nc4cccc(C#N)c4)c3)c2)c1	2
CC(C)CCOC(=S)S	34.2
CCCCCCCCCCCCOC(=O)CSC#N	-39.6
CN(C)C1C(=O)C(C(=O)NCN2CCCC2)=C(O)C2(O)C(=O)C3=C(O)c4c(O)cccc4C(C)(O)C3CC12 (configuration not stated)	-26.9

For the compound C=C(CN(C)C)C1(c2ccccc2)CC2(CCCC2)C(=O)O1 (configuration not stated) , give its measured growth inhibition value. 11.9

For the compound Cc1nc(N)[nH]c(=O)c1Cc1ccc(Cl)cc1Cl , give its measured growth inhibition value. -12.6

Provenance of the data: PubChem BioAssay (NCI)
